ASSAYED_TARGET: NNMT (hNNMT) (Homo sapiens, UniProt P40261)
Construct: wild type, N-terminal His6 tag kept (no cleavage described), E. coli, construct 31248 Da
Sequence (P40261 whole entry): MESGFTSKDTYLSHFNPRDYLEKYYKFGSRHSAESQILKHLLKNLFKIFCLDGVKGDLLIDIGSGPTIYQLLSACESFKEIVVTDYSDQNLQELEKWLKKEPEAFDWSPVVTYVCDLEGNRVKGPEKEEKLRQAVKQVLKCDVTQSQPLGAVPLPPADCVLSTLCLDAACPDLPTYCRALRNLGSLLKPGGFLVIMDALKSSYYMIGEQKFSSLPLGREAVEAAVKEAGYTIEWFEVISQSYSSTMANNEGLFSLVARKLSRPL
Design: Intact protein LC/MS covalent labelling, fragments in pools of five, 200 uM each, 4 °C
CONDITION_PARAMETERS: 24 h, 4 °C, pool of five; 200 µM; covalent
# NNMT annotations

- COMPOUND: "O=C(CCl)Nc1cccc(Cl)c1"
  NNMT: 0
- COMPOUND: "CC1CCCN(C(=O)CCl)C1 (stereo not drawn)"
  NNMT: 0
- COMPOUND: "CC1CCCC(C)N1C(=O)CCl (stereo not drawn)"
  NNMT: 0.2
- COMPOUND: "O=C(CCl)N1CCCCCC1"
  NNMT: 0
- COMPOUND: "Cl.O=C(CCl)N1CCN(Cc2ccc(Cl)s2)CC1"
  NNMT: 0.26
- COMPOUND: "CC(C)(C)C(NC(=O)CCl)c1cccs1 (stereo not drawn)"
  NNMT: 0

----------
# viability at 48 h, 10 µM annotations
TEST: in vitro
Design: species or system HB2, HEK293
CONDITION_PARAMETERS: human, ccd841 cells
RESULT_TYPE: viability at 48 h, 10 µM (%)

- COMPOUND: "CC1CN(c2ccc(NC(=O)CCl)cc2)CC(C)O1 (centres unmarked)"
  RESULT_TYPE: "viability at 48 h, 10 µM"
  DATA_VALUE: 64.7
- COMPOUND: "C=CC(=O)N1CC2CC3CC(C2)CC1C3"
  RESULT_TYPE: "viability at 48 h, 10 µM"
  DATA_VALUE: 115
- COMPOUND: "C#Cc1cccc(NC(=O)NC(=O)CCl)c1"
  RESULT_TYPE: "viability at 48 h, 10 µM"
  DATA_VALUE: 82.2
- COMPOUND: "Cl.O=C(CCl)Nc1ccc(N2CCCC2)cc1"
  RESULT_TYPE: "viability at 48 h, 10 µM"
  DATA_VALUE: 41.8
- COMPOUND: "O=C(CCl)N1CC=C(c2ccccc2)CC1"
  RESULT_TYPE: "viability at 48 h, 10 µM"
  DATA_VALUE: 86.8
- COMPOUND: "O=C(CCl)NC1C2CC3CC(C2)CC1C3 (centres unmarked)"
  RESULT_TYPE: "viability at 48 h, 10 µM"
  DATA_VALUE: 68.9
- COMPOUND: "CC(c1ccc(F)c(F)c1)N(C)C(=O)CCl (centres unmarked)"
  RESULT_TYPE: "viability at 48 h, 10 µM"
  DATA_VALUE: 39.3
- COMPOUND: "O=C(CCl)Nc1ccc(N2CCCCCC2)cc1"
  RESULT_TYPE: "viability at 48 h, 10 µM"
  DATA_VALUE: 31.8
- COMPOUND: "COC(=O)c1ccc(NC(=O)CCl)cc1"
  RESULT_TYPE: "viability at 48 h, 10 µM"
  DATA_VALUE: 56.2
- COMPOUND: "Cc1ccc(NC(=O)CCl)c(Cl)c1"
  RESULT_TYPE: "viability at 48 h, 10 µM"
  DATA_VALUE: 78.1
- COMPOUND: "COc1ccc(C)cc1NC(=O)CCl"
  RESULT_TYPE: "viability at 48 h, 10 µM"
  DATA_VALUE: 79.1

----------
TEST: in vitro
Set-up: species or system HB2, CCD841
CONDITION_PARAMETERS: human, hek293 cells
# viability at 48 h, 10 µM annotations

- MOLECULE: "Cc1ccsc1CN(C)C(=O)CCl"
  viability at 48 h, 10 µM: "36%"
- MOLECULE: "CC1CCN(C(=O)CCl)C2CCCCC12 (stereo not drawn)"
  viability at 48 h, 10 µM: "5.6%"
- MOLECULE: "O=C(CCl)Nc1nc2ccc(F)cc2s1"
  viability at 48 h, 10 µM: "76.7%"
- MOLECULE: "Cc1n[nH]c(C)c1NC(=O)CCl"
  viability at 48 h, 10 µM: "98.6%"
- MOLECULE: "Cc1c(C#N)sc(NC(=O)CCl)c1C#N"
  viability at 48 h, 10 µM: "87.5%"
- MOLECULE: "Cc1c(Cl)cccc1NC(=O)CCl"
  viability at 48 h, 10 µM: "4.9%"
- MOLECULE: "O=C(CCl)Nc1nc(-c2cccs2)cs1"
  viability at 48 h, 10 µM: "41.3%"
- MOLECULE: "COc1cccc2sc(NC(=O)CCl)nc12.Cl"
  viability at 48 h, 10 µM: "47.6%"
- MOLECULE: "CC(C)(C)CCNC(=O)CCl"
  viability at 48 h, 10 µM: "102%"
- MOLECULE: "C=CC(=O)NC1CCC2(CC1)OCCO2"
  viability at 48 h, 10 µM: "75.1%"
- MOLECULE: "C=CC(=O)Nc1ccc(C(=O)O)cc1"
  viability at 48 h, 10 µM: "95.1%"
- MOLECULE: "C=CC(=O)N1CCC(c2nccn2C)C1 (stereo not drawn)"
  viability at 48 h, 10 µM: "103%"
- MOLECULE: "C=CC(=O)NCC1(O)CCCC(C(F)(F)F)C1 (stereo not drawn)"
  viability at 48 h, 10 µM: "106%"
- MOLECULE: "Cc1c(C#N)c(NC(=O)CCl)n(C2CCCC2)c1C"
  viability at 48 h, 10 µM: "9.1%"
- MOLECULE: "COC(=O)C1(NC(=O)CCl)CCC(C)CC1 (stereo not drawn)"
  viability at 48 h, 10 µM: "93.6%"
- MOLECULE: "O=C(CCl)NCc1cccc(Cl)c1"
  viability at 48 h, 10 µM: "74.3%"
- MOLECULE: "O=C(CCl)N1c2ccccc2OCC1c1ccccc1 (stereo not drawn)"
  viability at 48 h, 10 µM: "52.1%"
- MOLECULE: "C=CC(=O)NCc1ccc(F)cc1"
  viability at 48 h, 10 µM: "87.3%"
- MOLECULE: "CN(C)C(=O)CNC(=O)CCl"
  viability at 48 h, 10 µM: "95.6%"
- MOLECULE: "O=C(CCl)N1CCN(S(=O)(=O)c2ccccc2)CC1"
  viability at 48 h, 10 µM: "15%"
- MOLECULE: "O=C(CCl)N1CCC2(CC1)OCCO2"
  viability at 48 h, 10 µM: "91.5%"
- MOLECULE: "C=CC(=O)N1CCN(C(=O)CN2C(=O)CCC2=O)CC1"
  viability at 48 h, 10 µM: "105%"
- MOLECULE: "Cl.O=C(CCl)NCc1cccnc1"
  viability at 48 h, 10 µM: "107%"
- MOLECULE: "Cc1cccc(C(=O)NNC(=O)CCl)c1"
  viability at 48 h, 10 µM: "83.7%"

----------
TEST: in vitro
Parameters: species or system HB2, CCD841
CONDITION_PARAMETERS: human, hek293 cells
Binary label based on viability at 48 h, 10 µM with cut-off 60%: below gives Met, not below gives Not met.

- COMPOUND: "CN(Cc1ccccc1Br)C(=O)CCl [PCM-0102592]"
  QUALITATIVE_LABEL: "Met"
- COMPOUND: "C=CC(=O)N1CCCN(C(=O)Oc2ccccc2)CC1 [PCM-0102451]"
  QUALITATIVE_LABEL: "Not met"
- COMPOUND: "O=C(CCl)N=c1sccn1Cc1ccccc1Cl [PCM-0102550]"
  QUALITATIVE_LABEL: "Met"
- COMPOUND: "Cc1cc(NC(=O)CCl)n(C)n1 [PCM-0102383]"
  QUALITATIVE_LABEL: "Met"
- COMPOUND: "O=C(CCl)NC(=O)Nc1ccc2c(c1)OCCCO2 [PCM-0102910]"
  QUALITATIVE_LABEL: "Not met"
- COMPOUND: "C=CC(=O)N1CCCC(Cc2nccn2C)C1 (stereo not shown) [PCM-0102433]"
  QUALITATIVE_LABEL: "Not met"
- COMPOUND: "O=C(CCl)NCc1cc(Br)cs1 [PCM-0103050]"
  QUALITATIVE_LABEL: "Met"
- COMPOUND: "O=C(CCl)NCc1cccs1 [PCM-0102280]"
  QUALITATIVE_LABEL: "Not met"
- COMPOUND: "O=C(CCl)Nc1ccc(Cl)cc1C(=O)O [PCM-0102127]"
  QUALITATIVE_LABEL: "Not met"
- COMPOUND: "C=CC(=O)N1CCCc2ccccc21 [PCM-0102549]"
  QUALITATIVE_LABEL: "Not met"
- COMPOUND: "C=CC(=O)NCC1CCC2(CCOCC2)C1O (stereo not shown) [PCM-0102569]"
  QUALITATIVE_LABEL: "Not met"
- COMPOUND: "CCN(C(=O)CCl)c1nc2ccccc2s1 [PCM-0102186]"
  QUALITATIVE_LABEL: "Not met"
- COMPOUND: "O=C1CN(C(=O)CCl)c2ccc(C(F)(F)F)cc2N1 [PCM-0102289]"
  QUALITATIVE_LABEL: "Not met"
- COMPOUND: "O=C(CCl)NC1C2CC3CC(C2)CC1C3 (stereo not shown) [PCM-0102404]"
  QUALITATIVE_LABEL: "Not met"
- COMPOUND: "O=C(CCl)Nc1ccc(OC(F)(F)F)cc1 [PCM-0102276]"
  QUALITATIVE_LABEL: "Met"
- COMPOUND: "O=C(CCl)N(C1=CCCCC1)C1CC1 [PCM-0102745]"
  QUALITATIVE_LABEL: "Not met"
- COMPOUND: "O=C(CCl)NC12CC3CC(CC(C3)C1)C2 [PCM-0102118]"
  QUALITATIVE_LABEL: "Not met"
- COMPOUND: "O=C(CCl)Nc1cccc(Cl)c1N1CCOCC1 [PCM-0102893]"
  QUALITATIVE_LABEL: "Met"
- COMPOUND: "CN(Cc1ccc(F)cc1)C(=O)CCl [PCM-0102939]"
  QUALITATIVE_LABEL: "Met"
- COMPOUND: "C=CC(=O)NC1(C2CC2)CCOCC1 [PCM-0102450]"
  QUALITATIVE_LABEL: "Not met"
- COMPOUND: "N#CC(c1cccs1)N1CCN(C(=O)CCl)CC1 (stereo not shown) [PCM-0102223]"
  QUALITATIVE_LABEL: "Not met"
- COMPOUND: "C=CC(=O)N1CCC(C(=O)c2cccs2)CC1 [PCM-0102989]"
  QUALITATIVE_LABEL: "Not met"
- COMPOUND: "N#CCc1ccc(NC(=O)CCl)cc1 [PCM-0102148]"
  QUALITATIVE_LABEL: "Met"
- COMPOUND: "Cc1ccc(S(=O)(=O)N2CCN(C(=O)CCl)CC2)cc1 [PCM-0102759]"
  QUALITATIVE_LABEL: "Met"
- COMPOUND: "O=C(CCl)Nc1cc(F)cc(F)c1 [PCM-0102874]"
  QUALITATIVE_LABEL: "Met"
- COMPOUND: "C=CCNC(=O)NC(=O)CCl [PCM-0102709]"
  QUALITATIVE_LABEL: "Not met"
- COMPOUND: "O=C(CCl)Nc1cccnc1N1CCCC1 [PCM-0102852]"
  QUALITATIVE_LABEL: "Not met"
- COMPOUND: "Cl.O=C(CCl)N1CCN(c2ccc(O)cc2)CC1 [PCM-0102357]"
  QUALITATIVE_LABEL: "Met"
- COMPOUND: "O=C(CCl)Nc1cccnc1Cl [PCM-0102274]"
  QUALITATIVE_LABEL: "Not met"
- COMPOUND: "N#Cc1ccccc1S(=O)(=O)N1CCN(C(=O)CCl)CC1 [PCM-0102395]"
  QUALITATIVE_LABEL: "Met"
- COMPOUND: "C=CC(=O)N1CCN(C)CC1 [PCM-0102634]"
  QUALITATIVE_LABEL: "Not met"
- COMPOUND: "CN(C(=O)CCl)c1nccs1 [PCM-0102975]"
  QUALITATIVE_LABEL: "Not met"
- COMPOUND: "Cc1sc(NC(=O)CCl)c(C#N)c1C [PCM-0102202]"
  QUALITATIVE_LABEL: "Met"
- COMPOUND: "CCOC(=O)C1CCN(C(=O)CCl)CC1 [PCM-0102656]"
  QUALITATIVE_LABEL: "Not met"
- COMPOUND: "O=C(CCl)Nc1cc2[nH]c(=O)[nH]c2cc1Br [PCM-0102388]"
  QUALITATIVE_LABEL: "Met"
- COMPOUND: "O=C(CCl)NCc1cc(F)cc(F)c1 [PCM-0102790]"
  QUALITATIVE_LABEL: "Not met"
- COMPOUND: "O=C(CCl)Nc1cccc(C(F)(F)F)c1 [PCM-0102290]"
  QUALITATIVE_LABEL: "Met"
- COMPOUND: "O=C(CCl)Nc1ccc2c(c1)C(=O)c1ccccc1C2=O [PCM-0102194]"
  QUALITATIVE_LABEL: "Met"
- COMPOUND: "CC(=O)N1CCN(C(=O)CCl)CC1 [PCM-0102535]"
  QUALITATIVE_LABEL: "Met"
- COMPOUND: "CC(c1ccc(F)cc1)N(C)C(=O)CCl (stereo not shown) [PCM-0102783]"
  QUALITATIVE_LABEL: "Met"
- COMPOUND: "O=C(CCl)Nc1ccc2[nH]c(C(F)(F)F)nc2c1 [PCM-0102151]"
  QUALITATIVE_LABEL: "Met"
- COMPOUND: "COc1ccc2nc(NC(=O)CCl)sc2c1 [PCM-0102330]"
  QUALITATIVE_LABEL: "Met"
- COMPOUND: "CCC1CCCCN1C(=O)CCl (stereo not shown) [PCM-0102828]"
  QUALITATIVE_LABEL: "Not met"
- COMPOUND: "Cc1cc(NC(=O)CCl)n(-c2ccccc2F)n1 [PCM-0103066]"
  QUALITATIVE_LABEL: "Met"
- COMPOUND: "Cc1ccc(NC(=O)CCl)cc1S(N)(=O)=O [PCM-0102177]"
  QUALITATIVE_LABEL: "Met"
